# Assay Text: Selectivity index, ratio of CC50 for human HepG2.2.15 cells to IC50 for antiviral activity against HBV infected in human HepG2.2.15 cells assessed as reduction in intracellular viral DNA level
# Type: toxicity, cell-based
# Applied Conditions: read-out: Ratio CC50/IC50
Metric: selectivity ratio

Can you share its selectivity ratio? I mean this compound: Nc1ccn([C@@H]2CS[C@H](CO)O2)c(=O)n1 [LAMIVUDINE]
> 167

Can you share its selectivity ratio? I mean this compound: CC(C)Cc1nc(-c2ccncc2)sc1C(=O)NCc1ccc(F)cc1
> 2.5

Can you share its selectivity ratio? I mean this compound: CC(C)Cc1nc(-c2cccc(F)c2)ncc1C(=O)O
> 10.1

###

# Tested on: Hepatitis B virus
# Assay Text: Antiviral activity against HBV infected in human HepG2.2.15 cells assessed as […] at 100 uM incubated for 4 days prior to compound washout followed by compound addition and measured after 4 days by fluorogenic probe based RT-qPCR analysis relative to control
# Type: functional
# Applied Conditions: HepG2.2.15, 192 h, time 8 day
Consider the following compounds; for each one, report its inhibition at 100 µM.
Write the number in % without appending the unit.

Can you share its inhibition at 100 µM? I mean this compound: Nc1ccn([C@@H]2CS[C@H](CO)O2)c(=O)n1 [LAMIVUDINE]
87.9

Can you share its inhibition at 100 µM? I mean this compound: O=C(NCc1ccc(F)cc1F)c1cn(-c2nccs2)nc1NCc1ccccc1
32.9

Can you share its inhibition at 100 µM? I mean this compound: CC(C)Cc1sc(-c2nccs2)nc1C(=O)NCc1ccc(F)cc1
97.3

Can you share its inhibition at 100 µM? I mean this compound: CC(C)Cc1sc(-c2nccs2)nc1C(=O)Nc1ccc(F)cc1
89.8

Can you share its inhibition at 100 µM? I mean this compound: CCNc1nn(-c2cccc(F)c2)cc1C(=O)OCC
39.9

###

# Assay Text: Selectivity index, ratio of CC50 for human HepG2.2.15 cells to IC50 for antiviral activity against HBV infected in human HepG2.2.15 cells assessed as reduction in HBeAg secretion
# Assay type: toxicity, cell-based
# Applied Conditions: read-out: Ratio CC50/IC50
Consider the following molecules; for each one, report its selectivity ratio.

Can you share its selectivity ratio? I mean this molecule: CC(C)Cc1nc(-c2cccc(F)c2)ncc1C(=O)O
> 10.3

Can you share its selectivity ratio? I mean this molecule: CC(C)Cc1nc(-c2ccncc2)sc1C(=O)NCc1ccc(F)cc1
> 1.6

Can you share its selectivity ratio? I mean this molecule: CC(C)Cc1sc(-c2nccs2)nc1C(=O)Nc1ccc(F)cc1
< 0.8
